Overview of reported Vd across a group of compounds:
- assay.summary: Volume of distribution in Sprague-Dawley rat at 10 mg/kg, iv
- Assay type: ADME, organism-based
- Design: dose 10 mg/kg, route intravenous
- condition.set: in vivo

compound: O=[N+]([O-])c1ccc(C2=NOC(c3ccc(N4CCOCC4)cc3)C2)o1 (centres undefined)
Vd, L/kg: 35
--
compound: O=[N+]([O-])c1ccc(C2=NOC(c3ccc(N4CCOCC4)nc3)C2)o1 (centres undefined)
Vd, L/kg: 2.86
--
compound: CN1CCN(c2ccc(C3CC(c4ccc([N+](=O)[O-])o4)=NO3)cc2)C(=O)C1 (centres undefined)
Vd, L/kg: 3.1
--
compound: O=[N+]([O-])c1ccc(C2=NOC(c3ccc(N4CCCCC4)cc3)C2)o1 (centres undefined)
Vd, L/kg: 10.9

* * *

- assay.summary: Drug excretion in Sprague-Dawley rat urine at 10 mg/kg, iv
- Assay type: ADME, organism-based
- Parameters: dose 10 mg/kg, route intravenous
- condition.set: read-out: Drug excretion

molecule: CN1CCN(c2ccc(C3CC(c4ccc([N+](=O)[O-])o4)=NO3)cc2)C(=O)C1 (centres undefined)
dose excreted (%): 0.68
--
molecule: O=[N+]([O-])c1ccc(C2=NOC(c3ccc(N4CCCCC4)cc3)C2)o1 (centres undefined)
dose excreted (%): 0
--
molecule: O=[N+]([O-])c1ccc(C2=NOC(c3ccc(N4CCOCC4)nc3)C2)o1 (centres undefined)
dose excreted (%): 0.02
--
molecule: O=[N+]([O-])c1ccc(C2=NOC(c3ccc(N4CCOCC4)cc3)C2)o1 (centres undefined)
dose excreted (%): 0

* * *

Measured Cmax accompanies every entry in the list below.
- assay.summary: Cmax in rat at 10 mg/kg, iv
- Type: ADME, organism-based
- Parameters: dose 10 mg/kg, route intravenous
- condition.set: in vivo
measure: Cmax (ng/mL)

compound: CC(=O)NC[C@H]1CN(c2ccc(N3CCOCC3)c(F)c2)C(=O)O1
test.result: 15000
//
compound: CC1COc2c(N3CCN(C)CC3)c(F)cc3c(=O)c(C(=O)O)cn1c23 (configuration not stated)
test.result: 10900

* * *

In this section, each of the compounds is paired with its reported solubility at 18 h.
- assay.summary: Solubility of the compound at pH 7.4 after 18 hrs by UV spectrometry
- Assay type: physicochemical
- condition.set: buffer, pH 7.4
measure: solubility at 18 h (mg/mL)

compound: O=[N+]([O-])c1ccc(C2=NOC(c3ccc(N4CCOCC4)nc3)C2)o1 (stereo not given)
unit.label: mg/mL
test.result: 0.0141

compound: CN1CCN(c2ccc(C3CC(c4ccc([N+](=O)[O-])o4)=NO3)cc2F)C(=O)C1 (stereo not given)
unit.label: mg/mL
test.result: 0.0292

compound: O=C1COCCN1c1ccc(C2CC(c3ccc([N+](=O)[O-])o3)=NO2)cn1 (stereo not given)
unit.label: mg/mL
test.result: 0.0219

compound: CN1CCN(c2ccc(C3CC(c4ccc([N+](=O)[O-])o4)=NO3)cc2)C(=O)C1 (stereo not given)
unit.label: mg/mL
test.result: 0.0288

compound: O=[N+]([O-])c1ccc(C2=NOC(c3ccc(N4CC[S+]([O-])CC4)cc3)C2)o1 (stereo not given)
unit.label: mg/mL
test.result: 0.0289

compound: O=C1COCCN1c1ccc(C2CC(c3ccc([N+](=O)[O-])o3)=NO2)cc1F (stereo not given)
unit.label: mg/mL
test.result: 0.0126

compound: O=[N+]([O-])c1ccc(C2=NOC(c3ccc(N4CCSCC4)cc3)C2)o1 (stereo not given)
unit.label: mg/mL
test.result: 0.0019

compound: O=[N+]([O-])c1ccc(C2=NOC(c3ccc(N4CCOCC4)c(F)c3)C2)o1 (stereo not given)
unit.label: mg/mL
test.result: 0.0032

compound: CN1CCN(c2ccc(C3CC(c4ccc([N+](=O)[O-])o4)=NO3)cn2)C(=O)C1 (stereo not given)
unit.label: mg/mL
test.result: 0.0289

compound: O=C1COCCN1c1ccc(C2CC(c3ccc([N+](=O)[O-])o3)=NO2)cc1 (stereo not given)
unit.label: mg/mL
test.result: 0.0259
